- Test system: LoVo
- Assay Notes: Cytotoxicity against human doxorubicin resistant LoVo cells after 48 hrs by SRB assay
- Assay type: functional
Kindly state TGI for each of the entries shown.
Quick note: unit goes after the number.

# input Entry `C/C=C1\NC(=O)[C@H](Cc2ccccc2)NC(=O)[C@@H](C(C)C)NC(=O)[C@@H]([C@H](C)CC)NC(=O)[C@H](NC(=O)[C@H](NC(=O)[C@H](CCCN)NC(=O)[C@H]2CCCN2C(=O)[C@H](NC(=O)[C@H](CCC2CCCCC2)NC(=O)[C@@H](NC(=O)[C@@H](CC2CCCCC2)NC(=O)CCCC(C)C)[C@@H](C)O)C(C)C)[C@H](C)CC)[C@H](C)OC(=O)[C@H](C(C)C)NC1=O` needs its TGI filled in; supply it.
# output 1530 nM

# input Supply TGI value. Item: `C/C=C1\NC(=O)[C@H](Cc2ccc(O)cc2)NC(=O)[C@@H](C(C)C)NC(=O)[C@@H]([C@H](C)CC)NC(=O)[C@H](NC(=O)[C@H](NC(=O)[C@H](CCCN)NC(=O)[C@H]2CCCN2C(=O)[C@H](NC(=O)[C@@H](NC(=O)[C@@H](NC(=O)[C@H](NC(=O)CC[C@@H](C)CC)C(C)C)[C@@H](C)O)C(C)C)C(C)C)[C@H](C)CC)[C@H](C)OC(=O)[C@H](C(C)C)NC1=O`
# output 1720 nM

# input Report measured TGI; entry is `CC[C@@H](C)[C@@H](NC(=O)[C@H](CCCN)NC(=O)[C@H]1CCCN1C(=O)[C@H](NC(=O)[C@@H](NC(=O)[C@@H](NC(=O)[C@H](NC(=O)CCCC(C)C)C(C)C)[C@@H](C)O)C(C)C)C(C)C)C(=O)N[C@H]1C(=O)N[C@H]([C@H](C)CC)C(=O)N[C@H](C(C)C)C(=O)N[C@@H](Cc2ccccc2)C(=O)NC(C)(C)C(=O)N[C@@H](C(C)C)C(=O)O[C@H]1C`
# output 1500 nM

----------
- Tested on: DU-145
- Assay Notes: Cytotoxicity against human DU145 cells after 48 hrs by SRB assay
- Format: functional, cell-based
- Reported Conditions: Homo sapiens, DU-145, 48 h
Metric: TGI (µM)
The figure you give is taken to be in µM; do not add the unit.

# input Identify TGI associated with the molecule `C/C=C1\NC(=O)[C@H](Cc2ccccc2)NC(=O)[C@@H](C(C)C)NC(=O)[C@@H]([C@H](C)CC)NC(=O)[C@H](NC(=O)[C@H](NC(=O)[C@H](CCCN)NC(=O)[C@H]2CCCN2C(=O)[C@H](NC(=O)[C@@H](NC(=O)[C@@H](NC(=O)[C@@H](CCC(=O)O)NC(=O)CCCC(C)C)[C@@H](C)O)C(C)C)C(C)C)[C@H](C)CC)[C@H](C)OC(=O)[C@H](C(C)C)NC1=O`
# output 3.01

# input Please supply the value of reported TGI for the item `C/C=C1\NC(=O)[C@H](Cc2ccccc2)NC(=O)[C@@H](C(C)C)NC(=O)[C@@H](C(C)C)NC(=O)[C@H](NC(=O)[C@H](NC(=O)[C@H](CCCN)NC(=O)[C@H]2CCCN2C(=O)[C@H](NC(=O)[C@@H](NC(=O)[C@@H](NC(=O)[C@H](NC(=O)CCCC(C)C)C(C)C)[C@@H](C)O)C(C)C)C(C)C)C(C)C)[C@H](C)OC(=O)[C@H](C(C)C)NC1=O`
# output 1.18

# input Look up and report measured TGI for this entry: `C/C=C1\NC(=O)[C@H](Cc2ccccc2)NC(=O)[C@@H](C(C)C)NC(=O)[C@@H]([C@H](C)CC)NC(=O)[C@H](N)[C@H](C)OC(=O)[C@H](C(C)C)NC1=O`
# output 6
